# Target desc: Prostaglandin F (FP) Receptor (Homo sapiens, UniProt P43088)
# Construct: host or cells: Ca2+ optimized hematopoietic cell lines (rat)
# Sequence (P43088 whole entry): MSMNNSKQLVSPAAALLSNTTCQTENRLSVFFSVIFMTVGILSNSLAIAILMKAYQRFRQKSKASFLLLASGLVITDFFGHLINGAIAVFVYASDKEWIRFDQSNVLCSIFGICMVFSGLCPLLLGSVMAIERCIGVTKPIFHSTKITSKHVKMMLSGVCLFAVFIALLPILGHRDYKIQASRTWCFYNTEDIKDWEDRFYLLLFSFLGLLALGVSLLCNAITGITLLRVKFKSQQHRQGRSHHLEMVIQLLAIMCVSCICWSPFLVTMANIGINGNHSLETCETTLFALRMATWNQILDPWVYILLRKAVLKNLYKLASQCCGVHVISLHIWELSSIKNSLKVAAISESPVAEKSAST
# Test summary: Ca2+ assay (FLIPR) for the GPCR prostaglandin F (FP) receptor, agonist and antagonist mode
# Format: cell-based
pIC50: −log10 of the molar value.
Metric name: pIC50

Before answering, review these 4 worked examples.
O=C(Cc1ccc2ccccc2c1)N[C@H]1C[C@H]2COc3cccc(c3)C(=O)NCCC[C@H](NC(=O)OCc3ccccc3)C(=O)N2C1 :: 6.49
CN1CCC[C@H](NS(=O)(=O)c2ccc(-c3ccccc3)cc2)C(=O)N2C[C@@H](NC(=O)Cc3ccc4ccccc4c3)C[C@H]2COc2cccc(c2)C1=O :: 6.69
CCCCCCCCCC(=O)N[C@H]1CCCN(C)C(=O)c2cccc(c2)OC[C@@H]2C[C@H](NC(=O)Cc3ccc4ccccc4c3)CN2C1=O :: 6.36
CCCCCCCCCC(=O)N[C@H]1CCCN(C)C(=O)c2cccc(c2)OC[C@@H]2C[C@H](NC(=O)c3cccc(N4CCOCC4)c3)CN2C1=O :: 5.82

P. CN1CCC[C@H](NC(=O)CC(c2ccccc2)c2ccccc2)C(=O)N2C[C@@H](NC(=O)Cc3ccc4ccccc4c3)C[C@H]2COc2cccc(c2)C1=O
Q. CN(C)c1cccc(NC(=O)N[C@H]2C[C@H]3COc4cccc(c4)C(=O)NCCC[C@H](NC(=O)Cc4ccc5ccccc5c4)C(=O)N3C2)c1
R. CN1C[C@H](NC(=O)OCc2ccccc2)C(=O)N(C)CC(=O)N2C[C@@H](NC(=O)Cc3c[nH]c4ccccc34)C[C@H]2COc2cccc(c2)C1=O
S. CN1CCC[C@H](NC(=O)Cc2ccc(-c3ccccc3)cc2)C(=O)N2C[C@@H](NC(=O)Nc3cccc(N(C)C)c3)C[C@H]2COc2cccc(c2)C1=O
QUERY: Order the records so the highest pIC50 appears first and the lowest last. Use the labels to give the ranking in the order requested.
RESULT: S, P, Q, R
(S: 6.74, P: 6.07, Q: 5.57, R: 4.55)

1. CCCCCCCCCC(=O)N[C@H]1CCCN(C)C(=O)c2cccc(c2)OC[C@@H]2C[C@H](NC(=O)Cc3cccc4ccccc34)CN2C1=O
2. CCCCCCCCCC(=O)N[C@H]1CN(C)C(=O)c2cccc(c2)OC[C@@H]2C[C@H](NC(=O)Cc3c[nH]c4ccccc34)CN2C(=O)CN(C)C1=O
QUERY: I would appreciate it if you could say which entry, 1 or 2 , has the lower pIC50 value. Write down the label attached to your selection.
RESULT: 1
(1: 5.52, 2: 5.77)

P. CCCCCCCCCC(=O)N[C@H]1CCCN(C)C(=O)c2cccc(c2)OC[C@@H]2C[C@H](NC(=O)CCc3ccccc3)CN2C1=O
Q. CN1CCC[C@H](NC(=O)Nc2cccc(N(C)C)c2)C(=O)N2C[C@@H](NC(=O)Cc3ccc4ccccc4c3)C[C@H]2COc2cccc(c2)C1=O
R. COc1cccc(NC(=O)N[C@H]2C[C@H]3COc4cccc(c4)C(=O)N(C)CCC[C@H](NC(=O)Cc4ccc5ccccc5c4)C(=O)N3C2)c1
QUERY: Order the records so the highest pIC50 appears first and the lowest last. Use the labels to give the ranking in the order requested.
RESULT: R, Q, P

I. Cc1cccc(NC(=O)N[C@H]2CCCN(C)C(=O)c3cccc(c3)OC[C@@H]3C[C@H](NC(=O)Cc4ccc5ccccc5c4)CN3C2=O)c1
II. CN1CCC[C@H](NC(=O)CCCCCOCc2ccccc2)C(=O)N2C[C@@H](NC(=O)Cc3ccc4ccccc4c3)C[C@H]2COc2cccc(c2)C1=O
QUERY: I would appreciate it if you could say which entry, I or II , has the lower pIC50 value. Write down the label attached to your selection.
RESULT: I
